Every entry's value here was drawn from paper PMC7822874.

system: P. falciparum Dd2 Cytb F123L; test: SYBR Green ABS proliferation assay, NCGC00473217 selected clone G08; format: cell-based, Plasmodium falciparum; conditions: Plasmodium falciparum, DD2, cytochrome b mutant line, fifth value triple, c15; […]; read-out: log AC50, mean (converted)
measured.metric: AC50 (µM)
A number alone suffices; assume µM.

CCc1nc2c(c(-c3ccc(O)cc3)n1)CCN(Cc1cccn1C)CC2 [NCGC00480312-01] : 11.4
COc1cc(OC)c(OC)cc1CN1CCc2nc(N(C)C)[nH]c(=O)c2CC1 [NCGC00440589-01] : 2.03
CCCN1C(CC2CCOCC2)=N[S+](=O)([O-])c2cc(NC(=O)c3cccs3)ccc21 [NCGC00537663-01] : 3.56

Below: the item to evaluate.
// query Recorded AC50 for COc1ccc(-c2nc(C3CC3)nc3c2CCN(Cc2cc(C)on2)CC3)cc1 [NCGC00374666-01] , please?
// result 5.31

====

system: HepG2; settings: human, hepg2 cells, 48 h
measured.metric: Log AC50 (M)
A number alone suffices; assume M.

Example entries and their recorded answers appear below.
CCOc1cccc(CNCCc2c(C)[nH]c3ccc(OC(F)(F)F)cc23)c1O.O=C(O)C(=O)O : -4.4643
Brc1ccc2[nH]c3c(N4CCc5ccccc5C4)ncnc3c2c1 : -4.3643
CCN(CC)CCNC(=O)c1ccc(NC(=O)c2cn(-c3ccc(F)cc3)nc2-c2cccc(OC)c2)cc1 : -4.5143

// query Recorded Log AC50 (M) for CCc1ccc(Nc2cc(=O)n(C3CCCCC3)c(=O)[nH]2)cc1 , please?
// result -4.3643

// query Entry to check: CC(C)(C)OC(=O)N1CCC(c2c(C(=O)NCCN3CCC(Cc4ccccc4)CC3)cnn2-c2ccc(F)cc2)CC1
// result -4.3643

// query Entry to check: CCOc1ccc(C2=C(C(C)=O)Sc3nnc(C)n3N2C(C)=O)cc1
// result -4.3643

// query Entry to check: Cc1cnc(C(=O)Nc2cccc3cccnc23)cn1
// result -6.2143

// query Entry to check: O=c1c2ccccc2nc2n1CCN2Cc1ccc(Cl)cc1
// result -4.3643

====

test system: P. berghei-ANKA-GFP-LucCON liver stage parasites in HepG2-A16-CD81EGFP cells; assay: P. berghei liver stage Pb-Luc assay, Method 1 (UCSD, 1536-well); format: cell-based, Plasmodium berghei; conditions: Plasmodium berghei, 48 h, 3 uM (compounds provided at 10 mM); average of 2 wells on a 1536 well plate; column 9; read-out: Pb-Luc (P. berghei liver stage), % of control, higher concentration, second repeat
measured.metric: activity at 3 µM (%)
A number alone suffices; assume %.

Example entries and their recorded answers appear below.
CCOC(=O)c1c(NC(=O)c2ccccc2)sc2c(O)c(CN(CC)CC)ccc12 [MLS000523141-01] : 98
COc1ccc2nc3cc(Cl)ccc3c(Nc3cc(C(C)C)c(O)cc3C)c2c1 [MLS000737404-01] : 53
COc1cc(O)c(C(CCN2CCN(c3ccccc3)CC2)c2cc(OC)c(OC)c(OC)c2)c(OC)c1 (centres unmarked) [MLS000879517-01] : 91
Cc1cccc(Nc2nc(NCc3ccco3)c3ccccc3n2)c1 [MLS000662793-01] : 11
Cc1ccc(NC(=O)c2cc(C(=O)c3cc(Cl)ccc3O)cn(-c3ccc(C)cc3)c2=O)cc1 [MLS000374606-01] : 61
Oc1c(Br)cc(Br)cc1CN1CCN(Cc2ccccc2)CC1 [MLS000530313-01] : 112
CCOC(=O)c1nnn(-c2nonc2-n2cccc2)c1CN1CCC(C(=O)OCC)CC1 [MLS000538888-01] : 82

Below: the item to evaluate.
// query Recorded activity at 3 µM for COc1cc(O)c(C(CCN2CCCCC2)c2ccc3c(c2)OCO3)c(OC)c1 (centres unmarked) [MLS000879495-01] , please?
// result 98

====

test system: luciferase-expressing P. berghei liver stage parasites in HepG2 cells; assay: Inhibition of liver-stage development assay (ILSDA), Method 2 (WRAIR, 96-well); assay type: cell-based, Plasmodium berghei; settings: Method 2; Decrease = decreasing P. berghei viability with dose, Increase = increasing signal, Inactive = no dose response
measured.metric: Max Resp (signal direction of the dose response)

Example entries and their recorded answers appear below.
Cc1ccc(CSCc2ccc(C(=O)NC3CC3)o2)cc1 : Decrease
COc1ccc(-c2ccc3ncc(Nc4ccc(C(N)=O)cc4)n3n2)cc1OC : Inactive
O=c1cc(CSc2ccc(Cl)cc2)nc(-c2ccccn2)[nH]1 : Inactive
Cc1nc2ccc(NC(=O)c3cc(S(=O)(=O)N(C)c4ccccc4)ccc3Cl)cc2s1 : Decrease

Below: the item to evaluate.
// query Recorded Max Resp (signal direction of the dose response) for CC(=O)Nc1ccc(CN2CCc3nc(C(C)C)nc(-c4ccc(Cl)cc4)c3CC2)cc1 [NCGC00374598] , please?
// result Inactive

====

viability at 3 µM for assorted compounds
assay: in vitro; details: human, hepg2-a16-cd81egfp cells, % viability
A number alone suffices; assume %.

Example entries and their recorded answers appear below.
CC(C)N1CC=C(c2c[nH]c3ccccc23)CC1 [MLS000093714] : 93.1
Oc1ccccc1Nc1nc(NCc2ccccc2)c2ccccc2n1 [MLS000693415] : 90.9
CCCCCCSc1ccc([C@H]2N[C@@](Cc3ccccc3)(C(=O)OC)[C@H]3C(=O)N(CC)C(=O)[C@@H]23)cc1 [MLS001362744] : 91.8

Below: the item to evaluate.
// query Recorded viability at 3 µM for Oc1ccc(-c2ccccc2)cc1CN1CCCCCC1 [MLS001195126] , please?
// result 104

====

test: in vitro; details: human, HepG2-A16-CD81EGFP cells, uninfected
viability at 48 h, 1 µM for assorted molecules
A number alone suffices; assume %.

Example entries and their recorded answers appear below.
O=C(/C=C/c1ccco1)NC(S)=Nc1ccccc1N1CCCC1 : 107
Cc1cccc(Oc2nc(-c3ccccn3)nc3ccccc23)c1 : 106
CCN(CC)CCN1C(=O)c2ccccc2NC1c1ccc(C)cc1 (stereo not drawn) : 98

// query Recorded viability at 48 h, 1 µM for CCOCc1cnc(C)nc1NCC(=O)c1c(C)[nH]c2cc(C)ccc12 , please?
// result 97

// query Entry to check: Nc1nonc1-n1nnc(C(=O)N/N=C/c2cccs2)c1-c1ccc2c(c1)OCO2
// result 92

// query Entry to check: c1cncc(-c2nnc(-c3cccnc3)nn2)c1
// result 98

// query Entry to check: O=C(NC(c1ccccc1)c1cc(Cl)c2cccnc2c1O)c1cccnc1 (stereo not drawn)
// result 119

// query Entry to check: COc1cccc(C2C(C(=O)Nc3ccc(C)cc3C)=C(C)Nc3c(C(=O)Nc4ccccc4)cnn32)c1 (stereo not drawn)
// result 94.8

// query Entry to check: COc1ccc(CN[C@@H]2C=C[C@@H](c3c(C)nn(-c4ccc(OC)cc4)c3C)C2)cc1
// result 100

// query Entry to check: COc1ccc(OC)c(NC(=O)c2ccc3c(c2)N([S+](=O)([O-])c2ccccc2)CC3)c1
// result 112

// query Entry to check: CCCCN(CC)CCNC(=O)c1cc2c(-c3ccc(Cl)cc3)nn(C)c2s1
// result 102

// query Entry to check: COc1ccc(Nc2cc(O)c3ncccc3c2)cc1
// result 89

// query Entry to check: Oc1ccccc1Nc1nc(NCc2ccco2)c2ccccc2n1
// result 95.6

// query Entry to check: CCOC(=O)c1c(C)n(-c2ccc(F)cc2)c2ccc(O)cc12
// result 109

// query Entry to check: COc1ccc(/C=N/Nc2cc(C)nc3ccccc23)cc1
// result 92

// query Entry to check: O=C(Nc1ccc2c(N3CCCC3)ncnc2c1)c1cccc(Br)c1
// result 101

// query Entry to check: O=C(CCc1ccccc1)NC(c1cccs1)c1cc(Cl)c2cccnc2c1O (stereo not drawn)
// result 113

====

assay: Rat liver microsomal stability (RLMS); settings: rat liver microsomes
measured.metric: RLMS T1/2

CCCN1C(c2ccccc2)=NS(=O)(=O)c2cc(NC(=O)c3cccs3)ccc21 : favorable
CCCN1C(c2ccccc2)=NS(=O)(=O)c2cc(NC(=O)c3ccc(F)cc3)ccc21 : favorable

====

system: HepG2-A16-CD81EGFP cells; settings: HepG2, 3 µM compound treatment (10 mM stocks), replicate 2, normalized, average of 2 wells
Would you please tag the item t when its HepG2 3uM growth rep2 is 90% or above, and f when it is below?

The following molecules have reported results that may help.
Cc1ccc(Nc2cc(C)c3ccc(O)cc3n2)cc1C.Cl : t
CC1CCN(c2ccc(C(=O)NCc3ccco3)cc2[N+](=O)[O-])CC1 : t
C/C(=N\Nc1ncnc2sc(C)c(C)c12)c1ccccn1 : f
Cc1ccc(-c2c(C(=O)N/N=C/c3cccc(Cl)c3)nnn2-c2nonc2N)cc1 : t
NS(=O)(=O)c1ccc(N/N=C/c2cn(-c3ccccc3)nc2-c2cccs2)cc1 : t

Switching to the query record.
// query State whether the measured HepG2 3uM growth rep2 reaches 90%, counting equality as reaching it, for Cc1nn(-c2ccccc2)c(C)c1/C=N/Nc1nc2ccccc2[nH]1
// result f
